System: FES;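 also: KINOMEscan kinase panel screen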
condition info: concentration: 1 μM, replicates: in singlicate; n = 1
Quick reference for %Inh among some compounds
measurement type: %Inh (%)

1. CCc1ccnc(/C=C/c2n[nH]c3cc(Sc4ccccc4C(=O)NC)ccc23)c1 ... 0
2. Cc1ccc(C(=O)NCC(N)=O)cc1-n1c(C)cc(OCc2ccc(F)cc2F)c(Br)c1=O ... 23
3. Nc1nc(-c2ccc3c(N)n[nH]c3c2)cc(N2CCCC2)n1 [GSK2227430] ... 1
4. Cc1c2ccc(N(C)c3ccnc(Nc4cccc(S(N)(=O)=O)c4)n3)cc2nn1Cc1ccccc1.Cl.Cl [GW787226] ... 36
5. CC(=O)Nc1ccc(COc2ccc(Nc3ccnc4cc(-c5ccccn5)ccc34)cc2)cc1.Cl [GW440148] ... 13
6. Cl.Nc1ncnc2occ(-c3ccc(NC(=O)Nc4cc(C(F)(F)F)ccc4F)cc3)c12 [SB-707548] ... 6
7. CN1c2ccc(CNc3ccc(F)cc3)cc2-c2c(cnn2C)S1(=O)=O ... 0
8. O=C(NCCCN1CCOCC1)c1cccc(Nc2nccc(Nc3ccc(Oc4ccccc4)cc3)n2)c1 [GW663929] ... 16
9. O=c1cc(N2CCOCC2)nc2n(Cc3cccc4ccccc34)ccn12 [GSK2333389] ... 0
10. COc1ccc(COc2cc(-n3cnc4ccccc43)sc2C(N)=O)cc1 [GSK1024304] ... 16
11. O=C(Nc1cccc(-c2nn3ncccc3c2-c2ccnc(Nc3cccc(C(F)(F)F)c3)n2)c1)c1c(F)cccc1F [GSK299495] ... 0
12. Cc1cn2c(=O)cc(N3CCOCC3)nc2n1Cc1cccc(Cl)c1Cl [GSK2334006] ... 8
13. c1ccc(-c2cc(-c3c[nH]nc3-c3ccccn3)ccn2)cc1 [GW576604] ... 0
14. COc1ccc(Nc2nccc(N3CCC(NC(=O)Nc4cccc(C(C)=O)c4)C3)n2)cc1 (stereo not drawn) [GSK1379731] ... 1
15. COc1ccc(CNC(=O)NC2CCN(c3ccnc(Nc4ccc(OC)cc4)n3)C2)cc1 (stereo not drawn) [GSK1379727] ... 1
16. Fc1ccc(-c2ncn(CCCN3CCOCC3)c2-c2cccnc2)cc1 [SB-211743] ... 0
17. CSc1ccc(-c2cc3ncnc(SCC(=O)O)c3s2)cc1 ... 9
18. O=C(c1ccc(-c2cc(-c3c[nH]nc3-c3ccccn3)ccn2)cc1)N1CCOCC1 [GW812171] ... 0
19. COc1ccc(Nc2nccc(N3CCC(NC(=O)Nc4cc(C)ccc4C)C3)n2)cc1 (stereo not drawn) [GSK1379741] ... 0
20. Cc1cccc(-c2nc(Nc3ccc4ncsc4c3)c3ccccc3n2)n1 [GW867588] ... 13
21. COc1cc(Nc2nccc(N3CCC(NC(=O)c4cccc(NC(C)=O)c4)C3)n2)cc(OC)c1OC (stereo not drawn) [GSK1379754] ... 11
22. N#Cc1ccc(-c2cc(-c3c[nH]nc3-c3ccccn3)ccn2)cc1 [GW693028] ... 4
23. COc1cc2c(cc1OC[C@@H](O)CO)ncc1c3ccc(C#N)cc3[nH]c21 ... 8
24. COc1cc2c(cc1OCCN1CCN(C)CC1)ncc1c3ccc(C#N)cc3[nH]c21 ... 0
25. Nc1nccc(-c2c(-c3ccc(F)cc3)ncn2C2CCN(CC(F)(F)F)CC2)n1 [SB-236560] ... 0
26. CN(C(=O)c1ccc(-c2cc(-c3c[nH]nc3-c3ccccn3)ccn2)cc1)C1CCOCC1 [GW810083] ... 14
27. O=C(Nc1n[nH]c2cc(-c3cccc(F)c3)ccc12)C1CC1 [SB-735464] ... 34
28. CC(C)Oc1ccc2c(-c3ccnc(Nc4ccc(N5CCN(C)CC5)cc4)n3)cnn2n1 [GW696155] ... 15
29. CC(C)(C)n1cnc2c(N)ncnc21 [SKF-97359] ... 0
30. NS(=O)(=O)c1cccc(-c2ccc3nccc(-c4cccc(S(N)(=O)=O)c4)c3c2)c1 [GW867253] ... 0
31. Cc1c(Cn2c(C)nn3c(=O)cc(N4CCOC(C)C4)nc23)cccc1C(F)(F)F (stereo not drawn) [GSK2344444] ... 0
32. CN1c2ccc(NCc3ccc(F)cc3)cc2-c2c(cnn2C)S1(=O)=O ... 4
33. Fc1ccc(-c2ncn(CCCN3CCOCC3)c2-c2ccccn2)cc1 [SB-211742] ... 10
